Test system: S. cerevisiae vps1Δ apl2Δ growth inhibition, dose response
Assay: growth inhibition of vps1Δ apl2Δ yeast, dose response, post-Golgi transport modulator project, S. cerevisiae, background strain comparison (AID 788)
Activity calls are given as the source filed them. The rule behind the calls is not given here.
Log the outcome using a class from 1 (yes) (active), 0 (no) (inactive)

Some solved cases for reference:
# compound, group_label
records = [
    ("O=C(COc1ccc(Cl)cc1)Nc1ccc(N2CCN(C(=O)c3ccco3)CC2)cc1", "0 (no)"),
    ("CC(C)Cc1[nH]c(=O)c(C#N)c2c1CCC2", "0 (no)"),
    ("c1ccc(Nc2cc(-c3ccccc3)nc3ncnn23)cc1", "1 (yes)"),
    ("CCc1ccc(C(=O)/C=C/c2ccc([N+](=O)[O-])o2)cc1", "0 (no)"),
    ("CCc1ccc(N(C(=O)c2csnn2)C(C(=O)NC(C)(C)C)c2ccncc2)cc1 (stereo unspecified)", "0 (no)"),
]

// next entry
Enquiry: Look up the recorded call for CCCCC(c1nnnn1Cc1ccco1)N1CCN(c2nc3ccccc3s2)CC1 (stereo unspecified) in this test.
Return: 0 (no)

----------
System: S. cerevisiae vps1Δ apl2Δ growth inhibition, dose response
Test: growth inhibition of vps1Δ apl2Δ yeast, dose response, post-Golgi transport modulator project, S. cerevisiae, background strain comparison (AID 788)
Calls of active or inactive are those of the source. The rule behind the calls is not given here.
Log the outcome using a class from active, inactive

Some solved cases for reference:
# smi, study_target, group_label
rows = [
    ("CCOC(=O)C1CCN(Cc2cnc(Oc3ccc(Cl)cc3C)s2)CC1", "S. cerevisiae vps1Δ apl2Δ growth inhibition, dose response", "active"),
    ("Cc1nn(-c2ccccn2)c(C)c1Oc1ccccc1O", "S. cerevisiae vps1Δ apl2Δ growth inhibition, dose response", "inactive"),
    ("O=C(C1CCN(S(=O)(=O)c2cccs2)CC1)N1CCCCCC1", "S. cerevisiae vps1Δ apl2Δ growth inhibition, dose response", "inactive"),
]

Enquiry: Look up the recorded call for `O=C(c1ccc(Cl)cc1Cl)N1CCC(c2nc3c(nnn3Cc3ccco3)c(=O)[nH]2)CC1` in this test.
Return: inactive

Enquiry: Now the same for `N=c1nc(N)nc2n1NC(c1ccc(F)cc1)=CS2`
Return: inactive

Enquiry: Now the same for `CCCC(=O)N1CCN(c2ccc(NC(=O)c3cc4ccccc4o3)cc2Cl)CC1`
Return: inactive

----------
Tested on: S. cerevisiae vps1Δ apl2Δ growth inhibition, dose response
Experiment: growth inhibition of vps1Δ apl2Δ yeast, dose response, post-Golgi transport modulator project, S. cerevisiae, background strain comparison (AID 788)
The source made the active and inactive calls. The rule behind the calls is not given here.
Log the outcome using a class from active, inactive

Some solved cases for reference:
# compound, study_target, group_label
records = [
    ("Cc1cccc2cc(C#N)c(NCCCn3ccnc3)nc12", "S. cerevisiae vps1Δ apl2Δ growth inhibition, dose response", "inactive"),
    ("N#CC1=C(N)NC(SCc2ccc(F)cc2)=C(C#N)C12CCCCC2", "S. cerevisiae vps1Δ apl2Δ growth inhibition, dose response", "active"),
    ("Cc1ccc2nc(C)cc(OCC(=O)O)c2c1", "S. cerevisiae vps1Δ apl2Δ growth inhibition, dose response", "inactive"),
    ("CCN(CC)C(=O)C1CCN(Cc2ccc(Br)cc2)CC1", "S. cerevisiae vps1Δ apl2Δ growth inhibition, dose response", "inactive"),
]

Enquiry: Look up the recorded call for `Cc1cc(C)nc(N/N=C/C(Cl)=C/c2ccccc2)n1` in this test.
Return: inactive

Enquiry: Now the same for `Cc1cc(C(C)(C)C)ccc1OCCN1CCCC1`
Return: active

Enquiry: Now the same for CCc1cc(=O)oc2cc(C)c(CN3CCCC(C)C3)c(O)c12 (configuration not stated)
Return: inactive

Enquiry: Now the same for C=C(C)C1CC=C(CN2CC(C)OC(C)C2)CC1 (configuration not stated)
Return: active

Enquiry: Now the same for `Cc1ccc(C(=O)Nc2ccc(Cc3ccncc3)cc2)cc1[N+](=O)[O-]`
Return: active

Enquiry: Now the same for `Cc1ccc(CSc2nc3ccccc3cc2C=O)cc1`
Return: inactive

Enquiry: Now the same for O=C(NCC(c1cccnc1)N1CCN(c2ccccc2)CC1)C1CCCCC1 (configuration not stated)
Return: inactive

Enquiry: Now the same for `CCOC(=O)N1CCN(c2ccc(S(=O)(=O)N(Cc3ccccc3)Cc3ccccc3)cn2)CC1`
Return: inactive
